test-target: T1, human PD-L1 (human, UniProt Q9NZQ7 19-238, limits assumed)
T1 construct: Protein used in the Biacore assays of 3.1
T1 sequence (Q9NZQ7 19-238 limits assumed): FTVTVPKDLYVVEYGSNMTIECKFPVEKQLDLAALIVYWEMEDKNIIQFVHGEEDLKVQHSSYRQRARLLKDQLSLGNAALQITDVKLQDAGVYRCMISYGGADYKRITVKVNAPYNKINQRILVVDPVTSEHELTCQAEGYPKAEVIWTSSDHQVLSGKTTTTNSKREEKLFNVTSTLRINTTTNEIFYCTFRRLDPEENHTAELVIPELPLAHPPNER
experiment: Biacore; relative to A09-188-1
property-label: Relative KD
Hey, just send me the number, nothing else.

Examples from the recorded data:
binder	Relative KD
A09-216-1 (antibody, human IgG1, lambda, V domains shown, 193V read as I93V; also called VH-M31I, M33L, S63T, 193V) VH: EVQLLESGGGLVQPGGSLRLSCAASGFTFSIYLMMWVRQAPGKGLEWVSSIYPSGGITFYADTVKGRFTISRDNSKNTLYLQMNSLRAEDTAVYYCARIKLGTVTTVDYWGQGTLVTVSS VL: QSALTQPASVSGSPGQSITISCTGTSSDVGAYNYVSWYQQHPGKAPKLMIYDVSNRPSGVSNRFSGSKSGNTASLTISGLQAEDEADYYCSSYTSSSTRVFGTGTKVTVLG	0.17
A09-242-2 (antibody, human IgG1, lambda, V domains shown, also called VL-A31G; VH-M33L, M35F, S63T, I93V) VH: EVQLLESGGGLVQPGGSLRLSCAASGFTFSMYLMFWVRQAPGKGLEWVSSIYPSGGITFYADTVKGRFTISRDNSKNTLYLQMNSLRAEDTAVYYCARIKLGTVTTVDYWGQGTLVTVSS VL: QSALTQPASVSGSPGQSITISCTGTSSDVGGYNYVSWYQQHPGKAPKLMIYDVSNRPSGVSNRFSGSKSGNTASLTISGLQAEDEADYYCSSYTSSSTRVFGTGTKVTVLG	0.16
A09-213-1 (antibody, human IgG1, lambda, V domains shown, 193V read as I93V; also called VH-M31I, M35F, S63T, 193V) VH: EVQLLESGGGLVQPGGSLRLSCAASGFTFSIYMMFWVRQAPGKGLEWVSSIYPSGGITFYADTVKGRFTISRDNSKNTLYLQMNSLRAEDTAVYYCARIKLGTVTTVDYWGQGTLVTVSS VL: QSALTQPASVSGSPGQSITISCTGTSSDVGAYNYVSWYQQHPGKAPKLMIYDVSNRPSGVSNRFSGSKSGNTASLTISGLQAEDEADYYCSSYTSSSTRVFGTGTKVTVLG	0.47
A09-222-1 (antibody, human IgG1, lambda, V domains shown, also called VH-M31S, M33L, S63T, I93V) VH: EVQLLESGGGLVQPGGSLRLSCAASGFTFSSYLMMWVRQAPGKGLEWVSSIYPSGGITFYADTVKGRFTISRDNSKNTLYLQMNSLRAEDTAVYYCARIKLGTVTTVDYWGQGTLVTVSS VL: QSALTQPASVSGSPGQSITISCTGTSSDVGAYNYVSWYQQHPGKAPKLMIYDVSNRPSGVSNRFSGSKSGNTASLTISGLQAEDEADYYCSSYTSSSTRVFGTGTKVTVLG	0.23
A09-244-2 (antibody, human IgG1, lambda, V domains shown, also called VL-A31G; VH-M31S, M33I, M35F, S63T, I93V) VH: EVQLLESGGGLVQPGGSLRLSCAASGFTFSSYIMFWVRQAPGKGLEWVSSIYPSGGITFYADTVKGRFTISRDNSKNTLYLQMNSLRAEDTAVYYCARIKLGTVTTVDYWGQGTLVTVSS VL: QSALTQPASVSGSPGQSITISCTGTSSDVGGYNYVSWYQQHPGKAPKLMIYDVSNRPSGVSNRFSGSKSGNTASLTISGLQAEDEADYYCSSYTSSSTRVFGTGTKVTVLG	0.03

Q: Give its Relative KD value. Item: A09-219-1 (antibody, human IgG1, lambda, V domains shown, also called VH-M31S, M33I, M35F, S63T, I93V) VH: EVQLLESGGGLVQPGGSLRLSCAASGFTFSSYIMFWVRQAPGKGLEWVSSIYPSGGITFYADTVKGRFTISRDNSKNTLYLQMNSLRAEDTAVYYCARIKLGTVTTVDYWGQGTLVTVSS VL: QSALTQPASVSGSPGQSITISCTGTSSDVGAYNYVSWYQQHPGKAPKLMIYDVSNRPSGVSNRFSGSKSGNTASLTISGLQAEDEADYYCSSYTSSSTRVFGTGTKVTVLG
Ans: 0.03
